The entries below are paired with their reported Surface Activity.
Target: T1, hIL2Rb-his (human, UniProt P14784 27-240)
T1 sequence: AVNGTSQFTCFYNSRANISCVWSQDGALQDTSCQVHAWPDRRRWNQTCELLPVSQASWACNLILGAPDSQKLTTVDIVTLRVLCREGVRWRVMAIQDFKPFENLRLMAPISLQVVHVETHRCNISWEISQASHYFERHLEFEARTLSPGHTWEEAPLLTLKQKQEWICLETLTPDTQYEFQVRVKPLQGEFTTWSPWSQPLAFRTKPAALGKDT
Assay: SPR; ratio of experimental to calculated Rmax

As a guide, the following entries are already answered.
hIL2Rb_VHH4 Mono-Fc VHH (Fc fusion, not shown: a dimerising Fc or GST) QVQLQESGGGSVQTGGSLRLSCAVSGYTTYSFNYMGWFRQAPGKEREGVAVIYTGGGSTLYADSVKGRFTISQDNAKNTVYLQMNSLKPEDTAMYYCAADDQRFASPLYAYFGYWGQGTQVTVSS
96%
hIL2Rb_VHH1 Mono-Fc VHH (Fc fusion, not shown: a dimerising Fc or GST) QVQLQESGGGSVQAGGSLRLSCVGSGYTYDTSDMSWYRQAPGKEREFVSDIDSGDWAAYADAVKGRFTISRDNAKKTVYLQMNSLEPEDTAMYYCKASYWKWGKLNNFWGPGTQVTVSS
37%
hIL2Rb_VHH2 Mono-Fc VHH (Fc fusion, not shown: a dimerising Fc or GST) QVQLQESGGGLVQPGGSLRLSCVASGFTFSNYWIFWVRQAAGKGLEWLSTSNTGGDTTKYADSVKGRFTISRDSAKNTEYLQMNSLKPEDTAVYYCETGRCARSGGYQGTQVTVSS
26%

// next item, Surface Activity requested
Req: Consider the binder shown here: hIL2Rb_VHH8 Mono-Fc VHH (Fc fusion, not shown: a dimerising Fc or GST) QVQLQESGGGSVQVGGSLKLSCAASGYTYSSYYCMGWFRQAPGKEREGVAAIDSDGSTSYADSVKGRFTISQDDAKNTLYLQMNSLKPEDTAMYYCAASYEVVDCYPSGYGQDYWGKGTQVTVSS What is its recorded Surface Activity?
Resp: < 5%
